%Inh listing for selected compounds.
- System: YANK1
- Construct: gene STK32A
- experimental.setup: concentration: 1 μM, replicates: in singlicate; n = 1;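 also: KINOMEscan kinase panel screen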
Use % as the unit, but write only the number.

> print(dat)
                                   compound  recorded.number
1  CNCc1ccc2nc(NC(=O)c3ccc(C(C)(C)C)cc3)cn2c1                2
2  COC(=O)C(Cc1ccccc1)NC(=O)NC1CCN(c2ccnc(Nc3ccc(F)cc3)n2)C1 (stereo not drawn) [GSK1379714]                0
3  COc1cccc(NC(=O)Nc2ccc(C)c(-c3ccc(C(=O)Nc4ccncc4)cc3)c2)c1 [GSK1398474]               18
4  Cc1ccc(NC(=O)Nc2ccc(Cl)c(C(F)(F)F)c2)cc1-c1ccc(C(=O)Nc2ccncc2)cc1 [GSK1398470]               60
5             Cn1cnc2c(N)ncnc21 [SKF-97623]                0

Turning now to a further record.
Prompt line: Please look up its %Inh: Cc1ccccc1-c1cc(-c2c[nH]nc2-c2ccccn2)ccn1 [GW680061]
Response line: 0

----------
- Test system: DCAMKL3
- Construct: gene DCLK3
- experimental.setup: concentration: 1 μM, replicates: in singlicate; n = 1
Measured %Inh by item
I'd appreciate it if you included the unit after the number.

As a guide, the following entries are already answered.
> print(dat)
                                   compound  test.system  result
1  Nc1cccc(-c2ccc3c(N)n[nH]c3c2)n1 [GSK2192730]      DCAMKL3      0%
2  CC(=O)c1c(C)c2cnc(Nc3ccc(N4CCNCC4)cn3)nc2n(C2CCCC2)c1=O      DCAMKL3      0%

Consider the additional compound presented here.
Prompt line: Checklist item: %Inh tested on DCAMKL3, entry `CNC(=O)c1ccc(C)c(-n2c(C)cc(OCc3ccc(F)cc3F)c(Br)c2=O)c1` , value?
Response line: 0%

----------
- Test system: S6K1
- experimental.setup: concentration: 1 μM, replicates: in singlicate; n = 1
Below: a set of entries, each annotated with reported %Inh.
Unit % implied. Number only.

These solved cases illustrate the format of a correct answer.
> print(dat)
                                   molecule  test.system  assay.readout  recorded.number
1  CC(=O)c1cccc(NC(=O)NC2CCN(c3ccnc(Nc4ccc(F)cc4)n3)C2)c1 (stereo not drawn)         S6K1           %Inh                0
2  Nc1ncnc2occ(-c3ccc4c(c3)CCN4C(=O)Cc3cc(F)ccc3F)c12         S6K1           %Inh                0

Now take the following molecule into account.
Prompt line: Entry `COc1cccc(C2=C(Nc3cc(Cl)c(O)c(Cl)c3)C(=O)NC2=O)c1` : reported %Inh = ?
Response line: 20

----------
- System: WNK2
- experimental.setup: concentration: 1 μM, replicates: in singlicate; n = 1
Item-by-item account of %Inh
Give a bare numeral; the unit % is implied.

> print(dat)
                              smiles.record  test.system  recorded.number
1  CN1c2ccc(-c3ccc(C(N)=O)cc3)cc2-c2[nH]ncc2S1(=O)=O         WNK2                0

Prompt line: Lab request: please report %Inh under test system WNK2 for `CS(=O)(=O)CCNCc1nc(-c2ccc3ncnc(Nc4ccc(OCc5ccccc5)c(Cl)c4)c3c2)cs1.Cl`
Response line: 13

Prompt line: # get_value(readout= %Inh, system= WNK2) for `CSc1ccc(-c2nc3n(c2-c2ccncc2)CCC3)cc1`
Response line: 21

----------
- Tested on: MEK3
- Construct: gene MAP2K3
- experimental.setup: concentration: 1 μM, replicates: in singlicate; n = 1
%Inh values for the compounds below.
Kindly answer with a numeric value in %, unit omitted.

> print(dat)
                                   compound  assay.readout  recorded.number
1           Fc1ccc(-c2nc[nH]c2-c2ccncc2)cc1           %Inh               32
2  COC(=O)C(Cc1ccccc1)NC(=O)NC1CCN(c2ccnc(Nc3ccc(F)cc3)n2)C1 (stereo not shown)           %Inh               31
3  Cc1ccccc1-c1cc(-c2c[nH]nc2-c2ccccn2)ccn1           %Inh                0
4  Cl.Cl.Cl.N#Cc1ccc(CCNc2nccc(-c3cccc(CN4CCNCC4)c3)n2)cc1           %Inh                5

Prompt line: Name the reported %Inh value associated with the compound `CC[C@@H]1CO[C@H](C(=O)Nc2ccccc2)CN1c1cc(-c2ccc3c(N)n[nH]c3c2)nc(NC)n1`
Response line: 0

Prompt line: Please give the measured %Inh for this compound: Cn1cncc1C(=O)NC1CCN(c2ccnc(Nc3ccc(F)cc3)n2)C1 (stereo not shown)
Response line: 11

Prompt line: Find the recorded %Inh belonging to `FC(F)(F)c1ccccc1-c1cc(-c2c[nH]nc2-c2ccccn2)ccn1` and report it.
Response line: 0

Prompt line: So what does the record say about %Inh for `O=C(Nc1n[nH]c2nc(-c3cccs3)c(Br)cc12)C1CC1` ?
Response line: 34

Prompt line: Query (compound): `O=C1NC(=O)C(c2ccc(Cl)cc2)=C1Nc1cccc(Cl)c1` ; field requested: %Inh
Response line: 27

Prompt line: Which value of %Inh has been reported for `CNc1cc(-c2ccc3c(N)n[nH]c3c2)nc(N)n1` in the records?
Response line: 0

Prompt line: Would you kindly share the measured %Inh for `COc1ccc(CSc2nnc(-c3ccc4ncsc4c3)o2)cc1C(F)(F)F` ?
Response line: 9

Prompt line: What value of %Inh has been reported for the following compound? `COc1ccc2cc(-c3nc(-c4ccccc4C(C)C)[nH]c3-c3ccncc3)ccc2c1`
Response line: 0

Prompt line: Which measured %Inh value corresponds to `O=c1cc(N2CCOCC2)nc2n(Cc3ccccc3F)ccn12` ?
Response line: 0

Prompt line: Can you look up the measured %Inh of COc1ccc(Nc2nccc(N3CCC(NC(=O)c4cc5ccccc5s4)C3)n2)cc1 (stereo not shown) for me?
Response line: 0

Prompt line: Fill blank: measured %Inh of the compound `Cc1c(Cn2c(C)c(C)n3c(=O)cc(N4CCOCC4)nc23)cccc1C(F)(F)F` is ____.
Response line: 0

----------
- Test system: AMPK-alpha2
- Construct: gene PRKAA2
- experimental.setup: concentration: 1 μM, replicates: in singlicate; n = 1
Binarize %Inh at 1%; below is MET, at or above is NOT MET.

> print(dat)
                                   compound  assigned.label
1  O=c1cc(N2CCOCC2)nc2n(Cc3ccccc3F)ccn12 [GSK2297428]             MET
2  CNc1nc(-c2ccc3c(N)n[nH]c3c2)cc(N2C[C@@H](C(=O)Nc3ccccc3)CC[C@H]2C)n1 [GSK2298859]             MET
3  CNc1nc(-c2ccc3c(N)n[nH]c3c2)cc(N2C[C@@H](C(=O)NC3CCCCC3)OC[C@H]2C)n1 [GSK2375584]             MET
4  COC(=O)C(NC(=O)NC1CCN(c2ccnc(Nc3ccc(F)cc3)n2)C1)c1ccccc1 (stereo not shown) [GSK1379712]         NOT MET
5    CCn1c(-c2ccccc2)nc2cnccc21 [SB-733416]             MET

Prompt line: State whether 1% exceeds %Inh recorded for CC(C)c1cc(-c2ccc3c(N)n[nH]c3c2)nc(N)n1 [GSK2250882] .
Response line: MET

Prompt line: Hello, I'm reviewing records and need to know if %Inh of `CNCc1ccc2nc(NC(=O)c3ccc(C(C)(C)C)cc3)cn2c1` is below 1%. Could you check?
Response line: NOT MET

Prompt line: Criterion: %Inh strictly below 1%. Is it met by Cc1ccc(NC(=O)Nc2ccccc2)cc1-c1ccc(C(=O)Nc2ccncc2)cc1 [GSK1398471] ?
Response line: NOT MET

----------
- Tested on: RET
- experimental.setup: concentration: 1 μM, replicates: in singlicate; n = 1
Lab note - cut at 10% for %Inh: Satisfied if strictly below, Not satisfied if not.

Prompt line: Confirm or reject: %Inh of `CC[C@@H]1CO[C@H](C(=O)Nc2ccccc2)CN1c1cc(-c2ccc3c(N)n[nH]c3c2)nc(NC)n1` lies strictly below 10%
Response line: Not satisfied

Prompt line: # check: %Inh < 10% for `Cl.Cl.Cl.N#Cc1ccc(CCNc2nccc(-c3cccc(CN4CCNCC4)c3)n2)cc1`
Response line: Not satisfied

Prompt line: Strictly below 10%: is that where %Inh of `COc1cccc(NC(=O)Nc2ccc(C)c(-c3ccc(C(=O)Nc4ccncc4)cc3)c2)c1` sits?
Response line: Not satisfied

Prompt line: Is the reported %Inh for `O=C(Nc1n[nH]c2nc(-c3cccs3)c(Br)cc12)C1CCCC1` strictly below 10%?
Response line: Not satisfied

Prompt line: Determine if `CCc1ccc(-c2ccc3c(c2)-c2n[nH]cc2S(=O)(=O)N3C)cc1` shows %Inh strictly lower than 10%.
Response line: Not satisfied

Prompt line: In the record for `Cc1c(Cn2c(C)c(C)n3c(=O)cc(N4CCOCC4)nc23)cccc1C(F)(F)F` , is %Inh less than 10%?
Response line: Satisfied

Prompt line: Consider `CSc1ccc(-c2nc3n(c2-c2ccncc2)CCC3)cc1` . Does its %Inh lie strictly below 10%?
Response line: Satisfied

Prompt line: Quick check: does `FC(F)(F)c1ccccc1-c1cc(-c2c[nH]nc2-c2ccccn2)ccn1` have %Inh under 10%?
Response line: Not satisfied

This collection of values is drawn from paper PMC5540273.
